assay system: UniProt P00970
method: Cloning of a 500 bp amplicon made by Taq DNA polymerase into a T-tailed vector (ligation test system a)
Assay type: biochemical
Set-up: purchased NEB (New England Biolabs), Ipswich, Mass. #M0202
details: enhancer at 12%; no addition = 1-fold; single-base overhangs
Measured Cloning Enhancement by item

compound	Cloning Enhancement
CCO	25-fold
CC(O)CO (stereo not drawn)	14-fold
OCC(O)CO	4-fold
CC(C)O	16-fold
OCCO	10-fold
OCCCO	7-fold

----------
assay system: T4 DNA ligase (Enterobacteria phage T4, UniProt P00970)
Sequence (P00970 whole entry): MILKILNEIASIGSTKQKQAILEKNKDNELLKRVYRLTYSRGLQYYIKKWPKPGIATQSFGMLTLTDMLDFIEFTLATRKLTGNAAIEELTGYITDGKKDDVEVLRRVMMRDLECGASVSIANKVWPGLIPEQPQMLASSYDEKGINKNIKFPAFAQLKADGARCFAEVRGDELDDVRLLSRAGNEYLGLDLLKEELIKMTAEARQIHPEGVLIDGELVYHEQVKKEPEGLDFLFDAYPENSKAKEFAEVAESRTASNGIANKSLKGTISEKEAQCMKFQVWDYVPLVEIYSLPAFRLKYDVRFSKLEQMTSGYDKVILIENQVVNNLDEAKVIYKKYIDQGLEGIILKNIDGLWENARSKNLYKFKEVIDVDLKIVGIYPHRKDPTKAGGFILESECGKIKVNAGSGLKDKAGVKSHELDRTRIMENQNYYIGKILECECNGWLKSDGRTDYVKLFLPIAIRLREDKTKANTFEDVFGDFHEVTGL
Assay type: biochemical
Parameters: purchased NEB (New England Biolabs), Ipswich, Mass. #M0202
details: enhancer at 12%; no addition = 1-fold; single-base overhangs
Consider the following compounds and their measured Recircularization Enhancement readings.
property name: Recircularization Enhancement

compound	assay system	property name	endpoint value
OCCCO	T4 DNA ligase (Enterobacteria phage T4, UniProt P00970)	Recircularization Enhancement	9 fold
OCC(O)CO	T4 DNA ligase (Enterobacteria phage T4, UniProt P00970)	Recircularization Enhancement	5-fold
CC(O)CO (stereo not shown)	T4 DNA ligase (Enterobacteria phage T4, UniProt P00970)	Recircularization Enhancement	11-fold
CC(C)O	T4 DNA ligase (Enterobacteria phage T4, UniProt P00970)	Recircularization Enhancement	10-fold
